# credit: the supplement of paper PMC6555819

Tested on: PPARg:RXRa DBDmut IVT, anti-RXR (DBD mutation: RXRa K156A/R161A, NR concentration 270 nM, RXRa partner concentration 90 nM)
Test: PBM binding z-score (relative to random genomic background probes); higher = stronger binding; sequences stand for … in GC…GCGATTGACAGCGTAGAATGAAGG
Label True when PBM binding z-score is at or above 2; otherwise label False.

Can `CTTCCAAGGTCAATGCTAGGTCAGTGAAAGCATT` be said to have PBM binding z-score at or above 2?
True

Can `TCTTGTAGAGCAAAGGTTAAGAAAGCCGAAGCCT` be said to have PBM binding z-score at or above 2?
True

Can `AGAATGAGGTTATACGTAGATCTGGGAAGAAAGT` be said to have PBM binding z-score at or above 2?
True

Can `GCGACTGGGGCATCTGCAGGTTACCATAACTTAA` be said to have PBM binding z-score at or above 2?
True

Can `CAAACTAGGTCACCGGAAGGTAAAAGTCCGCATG` be said to have PBM binding z-score at or above 2?
True

Can `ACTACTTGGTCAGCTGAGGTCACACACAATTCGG` be said to have PBM binding z-score at or above 2?
True

Can `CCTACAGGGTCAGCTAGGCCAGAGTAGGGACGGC` be said to have PBM binding z-score at or above 2?
False

Can `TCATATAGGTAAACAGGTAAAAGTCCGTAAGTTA` be said to have PBM binding z-score at or above 2?
True

Can `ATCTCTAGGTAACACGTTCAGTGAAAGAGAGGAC` be said to have PBM binding z-score at or above 2?
True

Can `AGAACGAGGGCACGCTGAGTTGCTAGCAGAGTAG` be said to have PBM binding z-score at or above 2?
True

Can `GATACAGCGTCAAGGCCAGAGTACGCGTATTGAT` be said to have PBM binding z-score at or above 2?
False

Can `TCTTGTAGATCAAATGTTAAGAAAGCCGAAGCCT` be said to have PBM binding z-score at or above 2?
True

Can `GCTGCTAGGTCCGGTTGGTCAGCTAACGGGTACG` be said to have PBM binding z-score at or above 2?
False

Can `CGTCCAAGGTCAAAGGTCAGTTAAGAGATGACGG` be said to have PBM binding z-score at or above 2?
True

Can `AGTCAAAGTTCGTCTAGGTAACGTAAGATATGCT` be said to have PBM binding z-score at or above 2?
False

Can `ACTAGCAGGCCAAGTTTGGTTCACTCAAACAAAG` be said to have PBM binding z-score at or above 2?
False

----------
Tested on: PPARg:RXRa DBDmut IVT, anti-RXR (DBD mutation: RXRa K156A/R161A, NR concentration 270 nM, RXRa partner concentration 90 nM)
Experiment: PBM binding z-score (relative to random genomic background probes); higher = stronger binding; sequences stand for … in GC…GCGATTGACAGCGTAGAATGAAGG
Observable: PBM binding z-score
Just the number, please.

For `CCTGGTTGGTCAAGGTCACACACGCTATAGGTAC` the sequence record lists PBM binding z-score as 1.12

For `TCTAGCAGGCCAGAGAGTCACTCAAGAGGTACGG` the sequence record lists PBM binding z-score as 0.614

For `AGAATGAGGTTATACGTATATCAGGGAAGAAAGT` the sequence record lists PBM binding z-score as 2.88

For `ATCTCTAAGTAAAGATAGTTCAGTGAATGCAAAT` the sequence record lists PBM binding z-score as 0.013

For `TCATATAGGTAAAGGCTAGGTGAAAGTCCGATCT` the sequence record lists PBM binding z-score as 3.97

For `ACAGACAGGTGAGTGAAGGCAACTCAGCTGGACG` the sequence record lists PBM binding z-score as 0.534

For `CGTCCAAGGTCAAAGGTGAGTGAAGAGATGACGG` the sequence record lists PBM binding z-score as 4.29

For `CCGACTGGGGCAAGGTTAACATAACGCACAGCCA` the sequence record lists PBM binding z-score as 3.28

For `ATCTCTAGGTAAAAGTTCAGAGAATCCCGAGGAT` the sequence record lists PBM binding z-score as 2.03

For `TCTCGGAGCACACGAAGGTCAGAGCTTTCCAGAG` the sequence record lists PBM binding z-score as 0.43

For `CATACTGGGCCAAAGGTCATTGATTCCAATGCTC` the sequence record lists PBM binding z-score as 4.86
